# Experiment: Intrinsic clearance in monkey microsomes
# Type: ADME, Macaca mulatta, Microsome
# Condition Notes: rhesus monkey
Quantity Name: CLint scaled (mL/min/kg)
Numbers only, in mL/min/kg.

query: // CLint scaled lookup, key: CN(Cc1ccccc1)C(=O)[C@@H](NC(=O)c1cc2cc(NC(=O)c3ccccc3-c3ccc(C(F)(F)F)cc3)ccc2n1C)c1ccccc1 [DIRLOTAPIDE]
result: 835

###

# Experiment: Ratio of drug level in blood to plasma in human
# Type: ADME, cell-free
# Condition Notes: blood and plasma, read-out: BPR
Quantity Name: blood plasma ratio
Give bare numbers.

query: // blood plasma ratio lookup, key: CN(Cc1ccccc1)C(=O)[C@@H](NC(=O)c1cc2cc(NC(=O)c3ccccc3-c3ccc(C(F)(F)F)cc3)ccc2n1C)c1ccccc1 [DIRLOTAPIDE]
result: 0.61

###

# Experiment: AUC (0 to infinity) in rat at 3 mg/kg, po
# Format: ADME, organism-based
# Parameters: time infinity, dose 3 mg/kg, route oral
# Condition Notes: plasma
Quantity Name: AUC(0-inf) (ng·h/mL)
Numbers only, in ng·h/mL.

query: // AUC(0-inf) lookup, key: CN(Cc1ccccc1)C(=O)[C@@H](NC(=O)c1cc2cc(NC(=O)c3ccccc3-c3ccc(C(F)(F)F)cc3)ccc2n1C)c1ccccc1 [DIRLOTAPIDE]
result: 40.7

###

# Experiment: Cmax in portal cannulated Beagle dog at 1 mg/kg, po
# Assay type: ADME, organism-based, Canis lupus familiaris
# Parameters: dose 1 mg/kg, route oral
# Condition Notes: in vivo
Quantity Name: Cmax

query: // Cmax lookup, key: CN(Cc1ccccc1)C(=O)[C@@H](NC(=O)c1cc2cc(NC(=O)c3ccccc3-c3ccc(C(F)(F)F)cc3)ccc2n1C)c1ccccc1 [DIRLOTAPIDE]
result: 26.8 ng/mL

###

# Experiment: Cmax in rat at 3 mg/kg, po
# Type: ADME, organism-based
# Set-up: dose 3 mg/kg, route oral
# Condition Notes: in vivo
Quantity Name: Cmax (ng/mL)
Answers are plain numbers, in ng/mL.

query: // Cmax lookup, key: CN(Cc1ccccc1)C(=O)[C@@H](NC(=O)c1cc2cc(NC(=O)c3ccccc3-c3ccc(C(F)(F)F)cc3)ccc2n1C)c1ccccc1 [DIRLOTAPIDE]
result: 4.7

###

# Experiment: Half life in rat at 3 mg/kg, po
# Assay type: ADME, organism-based
# Parameters: dose 3 mg/kg, route oral
# Condition Notes: in vivo
Quantity Name: half-life
Please answer using the number first and the unit second.

query: // half-life lookup, key: CN(Cc1ccccc1)C(=O)[C@@H](NC(=O)c1cc2cc(NC(=O)c3ccccc3-c3ccc(C(F)(F)F)cc3)ccc2n1C)c1ccccc1 [DIRLOTAPIDE]
result: 6.3 h

###

# Experiment: Bioavailability in Beagle dog at 5 mg/kg, po
# Assay type: ADME, organism-based, Canis lupus familiaris
# Condition Notes: in vivo
Quantity Name: bioavailability (%)
Answers are plain numbers, in %.

query: // bioavailability lookup, key: CN(Cc1ccccc1)C(=O)[C@@H](NC(=O)c1cc2cc(NC(=O)c3ccccc3-c3ccc(C(F)(F)F)cc3)ccc2n1C)c1ccccc1 [DIRLOTAPIDE]
result: 12

###

# Experiment: Plasma clearance in rat at 1 mg/kg, iv
# Assay type: ADME, organism-based
# Design: dose 1 mg/kg, route intravenous
Quantity Name: clearance (mL/min/kg)
Numbers only, in mL/min/kg.

query: // clearance lookup, key: CN(Cc1ccccc1)C(=O)[C@@H](NC(=O)c1cc2cc(NC(=O)c3ccccc3-c3ccc(C(F)(F)F)cc3)ccc2n1C)c1ccccc1 [DIRLOTAPIDE]
result: 37

###

# Experiment: Intrinsic clearance in dog microsomes
# Type: ADME, Canis lupus familiaris, Liver, Microsome
Quantity Name: CLint scaled (mL/min/kg)
One number for each entry, in mL/min/kg.

query: // CLint scaled lookup, key: CN(Cc1ccccc1)C(=O)[C@@H](NC(=O)c1cc2cc(NC(=O)c3ccccc3-c3ccc(C(F)(F)F)cc3)ccc2n1C)c1ccccc1 [DIRLOTAPIDE]
result: 1090

###

# Test system: CYP2D6
# Experiment: Metabolic stability in human liver microsome at 0.5 uM in presence of 5 uM CYP2D6 inhibitor quinidine
# Assay type: ADME
# Condition Notes: liver microsomes, with 5 uM quinidine (CYP2D6 inhibitor)
Quantity Name: half-life at 0.5 µM (min)
One number for each entry, in min.

query: // half-life at 0.5 µM lookup, key: CN(Cc1ccccc1)C(=O)[C@@H](NC(=O)c1cc2cc(NC(=O)c3ccccc3-c3ccc(C(F)(F)F)cc3)ccc2n1C)c1ccccc1 [DIRLOTAPIDE]
result: 36

###

# Experiment: Bioavailability in rat at 30 mg/kg, po
# Assay type: ADME, organism-based
# Condition Notes: in vivo
Quantity Name: bioavailability

query: // bioavailability lookup, key: CN(Cc1ccccc1)C(=O)[C@@H](NC(=O)c1cc2cc(NC(=O)c3ccccc3-c3ccc(C(F)(F)F)cc3)ccc2n1C)c1ccccc1 [DIRLOTAPIDE]
result: 2.3%

###

# Experiment: Tmax in portal cannulated Beagle dog at 1 mg/kg, po
# Format: ADME, organism-based, Canis lupus familiaris
# Design: dose 1 mg/kg, route oral
# Condition Notes: in vivo
Quantity Name: Tmax (h)
Answers are plain numbers, in h.

query: // Tmax lookup, key: CN(Cc1ccccc1)C(=O)[C@@H](NC(=O)c1cc2cc(NC(=O)c3ccccc3-c3ccc(C(F)(F)F)cc3)ccc2n1C)c1ccccc1 [DIRLOTAPIDE]
result: 6.3
